Tested on: P388 leukemia ip, CD2F1 mice, survival T/C
Assay: NCI In Vivo Anticancer Drug Screen. Data for tumor model P388 Leukemia (intraperitoneal) in CD2F1 (CDF1) mice
Details: endpoint: median survival time; dose: 400.0 mg/kg/injection; schedule: Q04DX002 (ip); vehicle: Klucel (hydroxypropylcellulose) (HPC); higher = longer survival
Protocol: The antitumor activity of compounds was measured in mice bearing transplantable tumors. Survival or tumor size were measured and the results are expressed as the measurement made in the treated group (T) divided by the measurement made in the vehicle treated control group (C). The tumor model used in this assay is P388 Leukemia (intraperitoneal) in CD2F1 (CDF1) mice
Inconclusive results and toxic doses are left out.
Result Type: T/C

Below are worked cases with known answers.
Nc1ccc(S(=O)(=O)n2c(=O)oc3ccc(Br)cc32)cc1 :: 93 % of control
CC(C)=CCSc1ccccc1 :: 109 % of control
COC(=O)NN(C(=O)OC)C12CCCC1N(C(=O)OC)N(C(=O)OC)c1c2ccc2cc(OC)ccc12 (centres undefined) :: 90 % of control

Here's the next entry for you.
Prompt line: For the compound shown here, C1CC[C@H]2OCN[C@@H]2C1 , give the reported T/C.
Response line: 115 % of control

====

tested on: P388 leukemia ip, CD2F1 mice, survival T/C; assay: NCI In Vivo Anticancer Drug Screen. Data for tumor model P388 Leukemia (intraperitoneal) in CD2F1 (CDF1) mice; conditions: endpoint: median survival time; dose: 240.0 mg/kg/injection; schedule: Q01DX005 (ip); vehicle: saline with Tween-80; higher = longer survival
Toxic doses and inconclusive results are not listed.
Result Type: T/C

I have 2 compounds here; please give me T/C for each one.
1. CC(C)CNC(=O)NCCCCCCNC(=O)NCC(C)C
2. CC1C(=O)C(C)C(c2ccccc2)N(C)C1c1ccccc1 (stereo unspecified)

Response line:
["93 % of control", "106 % of control"]

I have 3 compounds here; please give me T/C for each one.
1. O=C1c2ccccc2C(=O)N1CCc1ncc[nH]1
2. COC(=O)C(C)NC(=O)C(C)NC(=O)c1cnc2ccccc2n1 (stereo unspecified)
3. O=C(/C=C/c1ccccc1)c1cc2c(cc1O)OCO2

Response line:
1. 100 % of control
2. 111 % of control
3. 100 % of control

Prompt line: For the compound shown here, Cc1ccc(NC(=O)CCCC(=O)C(C#N)c2c(Cl)cccc2Cl)cc1C (stereo unspecified) , give the reported T/C.
Response line: 103 % of control

====

system: P388 leukemia ip, CD2F1 mice, survival T/C; experiment: NCI In Vivo Anticancer Drug Screen. Data for tumor model P388 Leukemia (intraperitoneal) in CD2F1 (CDF1) mice; conditions: endpoint: median survival time; dose: 200.0 mg/kg/injection; schedule: Q01DX009 (ip); vehicle: Klucel (hydroxypropylcellulose) (HPC); higher = longer survival
Inconclusive results and toxic doses are left out.
Result Type: T/C

Below are worked cases with known answers.
Cc1ccc2sc(=S)sc2c1 :: 96 % of control
COc1cccc(C2C(C#N)C(=O)NC(=O)C2C#N)c1 (stereo not drawn) :: 99 % of control
CSc1cccc(NC(=O)Nc2ccccc2C(N)=O)c1 :: 94 % of control
CCSc1nc(N)c(C(=O)N2CCCCC2)s1 :: 105 % of control
O=C1C=CC(=C2SCCS2)C(O)=C1 :: 97 % of control

I have 3 compounds here; please give me T/C for each one.
1. COc1cccc(C2NC(=S)NC(=O)C2C#N)c1 (stereo not drawn)
2. CSCCC(NC(=O)CNC(=O)OCc1ccccc1)C(=O)O (stereo not drawn)
3. Brc1cc(Br)c2ccccc2c1OCC1CO1 (stereo not drawn)

Response line:
1: 94 % of control; 2: 93 % of control; 3: 91 % of control

====

Tested on: P388 leukemia ip, CD2F1 mice, survival T/C
Test: NCI In Vivo Anticancer Drug Screen. Data for tumor model P388 Leukemia (intraperitoneal) in CD2F1 (CDF1) mice
Settings: endpoint: median survival time; dose: 100.0 mg/kg/injection; schedule: Q01DX009 (ip); vehicle: saline with Tween-80; higher = longer survival
Method: The antitumor activity of compounds was measured in mice bearing transplantable tumors. Survival or tumor size were measured and the results are expressed as the measurement made in the treated group (T) divided by the measurement made in the vehicle treated control group (C). The tumor model used in this assay is P388 Leukemia (intraperitoneal) in CD2F1 (CDF1) mice
Inconclusive results and toxic doses are left out.
For each of the compounds below, state its T/C.

Nc1ncnc2ccc(Cl)cc12 :: 100 % of control
CC1(C)OC(=O)C(CCc2ccncc2)(CCc2ccncc2)C(=O)O1 :: 104 % of control

I have 8 compounds here; please give me T/C for each one.
1. O=C(CC(c1ccccc1)c1ccccc1)c1ccccc1
2. CCN(CC)Cc1c2c(O)c3c(O)c(C)c4c(c3c1O)C(=O)C(C)(O/C=C/C(OC)C(C)C(OC(C)=O)C(C)C(O)C(C)C(O)C(C)/C=C/C=C(\C)C(=O)N2)O4 (stereo unspecified)
3. CC(=O)NS(=O)(=O)c1ccc(N=NC2C(=O)N(C(=O)c3ccncc3)N=C2C)cc1 (stereo unspecified)
4. O=[N+]([O-])c1cc([N+](=O)[O-])c2ccccc2c1NS(=O)(=O)c1ccc(Cl)c(Cl)c1Cl
5. S=C1Cc2[nH]c(=S)sc(=S)c2C(=S)N1
6. C#CCOc1ccc(C)cc1
7. CCCCCCC(=O)/C=C/c1ccc(O)cc1
8. Nc1ccc(C(=O)c2ccccc2)cc1

Response line:
1. 90 % of control
2. 90 % of control
3. 97 % of control
4. 112 % of control
5. 87 % of control
6. 113 % of control
7. 105 % of control
8. 102 % of control

Prompt line: For the compound shown here, S=C(SCc1ccccc1)N1CCN(C(=S)SCc2ccccc2)CC1 , give the reported T/C.
Response line: 91 % of control

====

For each of the compounds below, state its T/C.
system: P388 leukemia ip, CD2F1 mice, survival T/C; experiment: NCI In Vivo Anticancer Drug Screen. Data for tumor model P388 Leukemia (intraperitoneal) in CD2F1 (CDF1) mice; settings: endpoint: median survival time; dose: 400.0 mg/kg/injection; schedule: Q04DX002 (ip); vehicle: saline with Tween-80; higher = longer survival
Toxic doses and inconclusive results are not listed.

CC(=O)c1ccc([N+](=O)[O-])cc1Cl :: 103 % of control
N#CC1(N)CC2CCCCC2CC1c1ccccc1 (stereo unspecified) :: 101 % of control
CN(C)c1ccc2c(c1)Oc1cc(N(C)C)ccc1C21c2ccccc2C(=O)N1N :: 90 % of control
CCCn1c(C)nc2c(N)cc(C(F)(F)F)cc21 :: 95 % of control
CN(C)C(=O)C1SCCCS1 :: 108 % of control

Here's the next entry for you.
Prompt line: For the compound shown here, COc1ccccc1C1c2cc3c(cc2OC(C)(N2CCCC2)C1C)OCO3 (stereo unspecified) , give the reported T/C.
Response line: 99 % of control

====

test system: P388 leukemia ip, CD2F1 mice, survival T/C; test: NCI In Vivo Anticancer Drug Screen. Data for tumor model P388 Leukemia (intraperitoneal) in CD2F1 (CDF1) mice; conditions: endpoint: median survival time; dose: 25.0 mg/kg/injection; schedule: Q01DX009 (ip); vehicle: other; higher = longer survival
Inconclusive results and toxic doses are left out.
For each of the compounds below, state its T/C.

Cc1cnc(/C=N\NC(N)=S)c2cccc(N)c12 :: 97 % of control
N#CCc1[nH]nc2ncnc(N)c12 :: 97 % of control
CCSC(=O)/C=C\C=[N+](/[O-])OC :: 104 % of control
CC1=C(C#N)C(C)(C)C(C#N)=C(C)N1C :: 110 % of control
CN(C)C1C(O)C2Oc3c(cc(O)c4c3C(=O)c3cc5c(c(O)c3C4=O)C(NCCO)CC(C)(O)C5)C(C)(O2)C1O (stereo not given) :: 123 % of control
C1CCC2(CC1)NN=C1CCCCC12 (stereo not given) :: 110 % of control
O=[N+]([O-])c1cc2c(cc1C=Nc1ccc(O)cc1)OCO2 :: 117 % of control
O=C(COc1ccccc1)OC(=O)COc1ccccc1 :: 109 % of control
Cc1ccc(S(=O)(=O)N/N=C\c2cccnc2)cc1 :: 110 % of control

Prompt line: For the compound shown here, COC1OC2COC(c3ccccc3)OC2C(OC(C)=O)C1OC(C)=O (stereo not given) , give the reported T/C.
Response line: 99 % of control

====

system: P388 leukemia ip, CD2F1 mice, survival T/C; assay: NCI In Vivo Anticancer Drug Screen. Data for tumor model P388 Leukemia (intraperitoneal) in CD2F1 (CDF1) mice; settings: endpoint: median survival time; dose: 240.0 mg/kg/injection; schedule: Q01DX005 (ip); vehicle: Klucel (hydroxypropylcellulose) (HPC); higher = longer survival
Toxic doses and inconclusive results are not listed.
For each of the compounds below, state its T/C.

I have 6 compounds here; please give me T/C for each one.
1. N#Cc1nnc2cc(-c3ccccc3)nn2c1C1CC1
2. Cc1ccc(Cl)cc1NC(=O)N(C)CCO
3. Cc1cccc2c(=O)n3c(cc12)-c1[nH]c2ccccc2c1CC3
4. COc1ccc(OC)c(/C=C2/C(=O)N(c3ccccc3)N=C2C)c1
5. CC1CC[N-]C(N)N1.CC1CC[N-]C(N)N1.[Cl][Pd][Cl] (configuration not stated)
6. CCOC(=O)c1ccc(NC(=O)Nc2ccc(N(C)C(C)=O)cc2)cc1

Response line:
1: 100 % of control; 2: 94 % of control; 3: 96 % of control; 4: 107 % of control; 5: 90 % of control; 6: 88 % of control
